Where these numbers come from: patent US8946431B2

# target_system: UniProtKB P41594
# assay_overview: Inhibitory concentration (IC50) on mGluR5
Field: IC50. Provide a value for each of the compounds that follow.
Give bare numbers, in nM.

1) C(#Cc1ccc2ccccc2n1)c1ccccn1 | 940

For the next question, use this compound.
// query // returns reported IC50 for input `N#Cc1cccc(C#Cc2ccc3ccccc3n2)n1`
// result 750

---

# target_system: mGluR5 (Homo sapiens, UniProt P41594)
# Construct: host or cells: HEK293 (human embryonic kidney) cells stably expressing m-GluR5
# Sequence (P41594 21-1212): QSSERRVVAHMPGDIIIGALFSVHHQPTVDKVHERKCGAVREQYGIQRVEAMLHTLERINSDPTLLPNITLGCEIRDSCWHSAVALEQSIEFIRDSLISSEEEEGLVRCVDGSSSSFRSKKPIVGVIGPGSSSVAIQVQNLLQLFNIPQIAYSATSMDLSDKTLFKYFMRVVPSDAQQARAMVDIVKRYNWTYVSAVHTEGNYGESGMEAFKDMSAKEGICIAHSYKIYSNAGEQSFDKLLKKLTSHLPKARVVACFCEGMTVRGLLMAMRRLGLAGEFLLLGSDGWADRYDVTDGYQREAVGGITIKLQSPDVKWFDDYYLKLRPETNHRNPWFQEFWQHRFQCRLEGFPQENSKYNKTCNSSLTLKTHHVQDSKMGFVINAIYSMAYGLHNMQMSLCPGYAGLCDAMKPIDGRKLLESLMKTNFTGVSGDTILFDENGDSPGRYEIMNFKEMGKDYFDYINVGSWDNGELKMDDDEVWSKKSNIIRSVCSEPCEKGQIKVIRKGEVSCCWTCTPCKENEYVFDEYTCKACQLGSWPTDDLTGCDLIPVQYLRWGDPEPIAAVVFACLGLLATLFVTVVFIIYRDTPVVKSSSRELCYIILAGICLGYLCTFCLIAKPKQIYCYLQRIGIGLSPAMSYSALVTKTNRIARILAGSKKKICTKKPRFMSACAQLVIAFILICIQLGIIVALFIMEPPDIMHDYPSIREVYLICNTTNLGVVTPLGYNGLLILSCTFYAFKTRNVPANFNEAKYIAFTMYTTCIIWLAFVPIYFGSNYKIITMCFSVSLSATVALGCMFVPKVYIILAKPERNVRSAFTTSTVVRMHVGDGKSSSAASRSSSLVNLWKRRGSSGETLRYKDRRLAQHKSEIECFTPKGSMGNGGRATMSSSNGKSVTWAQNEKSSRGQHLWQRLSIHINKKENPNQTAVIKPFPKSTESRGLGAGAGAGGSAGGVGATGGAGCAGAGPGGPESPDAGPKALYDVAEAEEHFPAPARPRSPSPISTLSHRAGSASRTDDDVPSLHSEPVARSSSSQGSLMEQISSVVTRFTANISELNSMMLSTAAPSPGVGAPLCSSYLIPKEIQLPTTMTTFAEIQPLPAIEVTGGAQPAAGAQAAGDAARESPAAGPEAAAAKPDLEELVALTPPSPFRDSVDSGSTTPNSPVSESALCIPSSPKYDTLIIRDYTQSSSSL
# assay_overview: Assay for m-GluR5 activity using FDSS6000 (calcium mobilization by L-glutamate in mGluR5/HEK293 cells)
# Type: cell-based
# condition_parameters: HEK293; 10 μM compound; L-glutamate 10 uM; HEK cells expressing m-GluR5; read-out: % Inhibition rate (mGluR5)
endpoint_label: inhibition at 10 µM
Report field: quantity (unit follows the number).

Known inhibition at 10 µM results, listed for orientation:
1) FC(F)(F)c1ccnc(C#Cc2ccc3ccccc3n2)c1 | 58%
2) Oc1cccc2nc(C#Cc3cccnc3)ccc12 | 17.6%
3) Fc1cccc(C#Cc2ccc3ccccc3n2)n1 | 46.9%
4) Clc1cccc2nc(C#Cc3ccccn3)ccc12 | 64.3%

// query Report inhibition at 10 µM for `FC(F)(F)c1cccnc1C#Cc1ccc2ccccc2n1` please.
// result 16.4%
